B1: POU domain, class 3, transcription factor 2, residues 262 to 338; numbered along this chain, P20265 (parent)
chain: EDTPTSDDLEQFAKQFKQRRIKLGFTQADVGLALGTLYGNVFSQTTICRFEALQLSFKNMCKLKPLLNKWLEEADSS

# Variants of: B1
# Procedure Text: abundance fitness (aPCA) (normalised: wild type 0, dead -1); higher = more abundant; growth selection in yeast, the domain comes from the species named
# Measurement Parameters: Homo sapiens
Classification field: enter Yes for abundance fitness values not below -0.2, No for values below it.

| Variant Id | Class |
| --- | --- |
| T46R | No |
| A52Y | No |

Data request: Exam item: decide whether the reported abundance fitness for `F25V` is at least -0.2.
Data returned: No

Data request: # bool: abundance fitness of `D29R` >= -0.2
Data returned: No

Data request: Is the recorded value of abundance fitness equal to or greater than -0.2 for this variant? `I47R`
Data returned: No

Data request: Reported abundance fitness reaches at least -0.2 for `Q18N` ?
Data returned: No

Data request: Please indicate if the recorded abundance fitness for `K17N` meets or exceeds -0.2.
Data returned: No

Data request: Could you verify whether the entry `A33H` shows abundance fitness of no less than -0.2?
Data returned: Yes

Data request: Is abundance fitness at least -0.2? Consider `F16Y`
Data returned: No

Data request: Could you tell me if the measured abundance fitness of `G31D` reaches -0.2 or more?
Data returned: No

Data request: Test whether the variant `F57Y` records abundance fitness of -0.2 or higher.
Data returned: Yes

Data request: Does `K64N` have a reported abundance fitness of at least -0.2?
Data returned: No

Data request: Assess whether reported abundance fitness for `K58F` sits at -0.2 or higher.
Data returned: Yes

Data request: In plain terms: is recorded abundance fitness at least -0.2 for `N68L` ?
Data returned: Yes

Data request: # bool: abundance fitness of `F50A` >= -0.2
Data returned: No

Data request: Identify whether the reported abundance fitness of the following variant is -0.2 or greater: `C48E`
Data returned: Yes

Data request: Does abundance fitness meet or surpass -0.2 for `C48W` ?
Data returned: Yes

Data request: State whether the measured abundance fitness reaches -0.2, counting equality as reaching it, for `E51I`
Data returned: No

Data request: For this variant, is measured abundance fitness -0.2 or higher? `V41R`
Data returned: Yes

Data request: Determine whether measured abundance fitness meets or exceeds -0.2 for `V41E`
Data returned: Yes
